# Test system: Staphylococcus aureus
# assay-name: Antibacterial activity against methicillin-resistant Staphylococcus aureus ATCC 43300 after 16 to 18 hrs by broth microdilution method
# Format: functional
# experimental-conditions: time 16-18 hrs
The threshold is 0.5 µg/mL. Values of MIC beneath it are tagged satisfied; values meeting or exceeding it are tagged not satisfied.

Recorded results for 6 molecules are shown here.
1. CCCC[C@H](CN(O)C=O)C(=O)N1CCC[C@H]1c1nnc(-c2ccccc2)s1    not satisfied
2. CCCC[C@H](CN(O)C=O)C(=O)N1CCC[C@H]1c1nnc(-c2ccc(Cl)s2)s1    satisfied
3. CCCC[C@H](CN(O)C=O)C(=O)N1CCC[C@H]1c1nnc(-c2ccc(C(C)(C)C)cc2)s1    not satisfied
4. CCCCc1ccc(-c2nnc([C@@H]3CCCN3C(=O)[C@H](CCCC)CN(O)C=O)s2)cc1    not satisfied
5. CCCC[C@H](CN(O)C=O)C(=O)N1CCC[C@H]1c1nnc(-c2ccc([N+](=O)[O-])cc2F)s1    satisfied
6. CCCC[C@H](CN(O)C=O)C(=O)N1CCC[C@H]1c1nnc(C2CCOC2)s1 (stereo not given in full)    not satisfied

Answer whether the molecule CCCC[C@H](CN(O)C=O)C(=O)N1CCC[C@H]1c1nnc(-c2ccc3[nH]ccc3c2)s1 has MIC strictly less than 0.5 µg/mL
not satisfied

Answer whether the molecule CCCC[C@H](CN(O)C=O)C(=O)N1CCC[C@H]1C(=O)Nc1ccc(F)c[n+]1[O-] has MIC strictly less than 0.5 µg/mL
satisfied

Answer whether the molecule CCCC[C@H](CN(O)C=O)C(=O)N1CCC[C@H]1c1nnc(-c2ccc(OC)c(OC)c2)s1 has MIC strictly less than 0.5 µg/mL
satisfied

Answer whether the molecule CCCC[C@H](CN(O)C=O)C(=O)N1CCC[C@H]1c1nnc(-c2ccc(F)cc2[N+](=O)[O-])s1 has MIC strictly less than 0.5 µg/mL
not satisfied

Answer whether the molecule CCCC[C@H](CN(O)C=O)C(=O)N1CCC[C@H]1c1nnc(-c2ccc(C(F)(F)F)cc2)s1 has MIC strictly less than 0.5 µg/mL
not satisfied

Answer whether the molecule CCCC[C@H](CN(O)C=O)C(=O)N1CCC[C@H]1c1nnc(-c2ccnc(C(F)(F)F)c2)s1 has MIC strictly less than 0.5 µg/mL
satisfied
